# Test description: qHTS to identify inhibitors of the type 1 interferon - major histocompatibility complex class I in skeletal muscle: primary screen against the NCATS LOPAC collection (AID 1347405);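 also: human myoblasts with HiBiT tag on endogenous HLA-B stimulated by IFN-beta; lytic HiBiT luminescence reporting HLA-B protein level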
# Conditions: iHSKM muscle cells, IFN-b-induced MHC-I HiBiT luminescence, 24 h; series mostly up to 45.9 µM
# Excerpt: Assay Submitter (PI): Travis B. Kinder Ph.D. & James Inglese Ph.D. Assay Development and Screening Technology Laboratory (ADST) National Center for Advancing Translational Sciences (NCATS), Rockville, MD National Institute of Health (NIH), Bethesda, Maryland […]
Inconclusive results are not listed. Calls of active or inactive are those of the source. Calls follow the shape of the dose curve; as a rule, active = well fitted inhibition curve with a large enough effect; inconclusive = small, poorly fitted or top-dose-only effect; inactive = flat fitted curve, though single readings scatter.
Respond only with the outcome that fits, drawn from TRUE (active), FALSE (inactive)

Consider the worked cases shown below.
>  <Compound>
C[C@]12CCC(=O)C=C1CC[C@@H]1[C@@H]2CC[C@@]2(C)[C@H]1CC[C@]2(O)C(=O)CO

>  <Assigned class>
FALSE

$$$$
>  <Compound>
Cc1nc2c([nH]1)c(=O)n(C)c(=O)n2Cc1ccco1

>  <Assigned class>
FALSE

$$$$
>  <Compound>
CC[N+](C)(C)c1cccc(O)c1

>  <Assigned class>
FALSE

$$$$
>  <Compound>
CN(C)CC[C@@H](c1ccc(Br)cc1)c1ccccn1

>  <Assigned class>
FALSE

$$$$

*Q* Kindly provide the recorded test outcome for the following compound: `O=C(CCCN1CCC(O)(c2cccc(C(F)(F)F)c2)CC1)c1ccc(F)cc1`
*A* FALSE

*Q* Please let me know the test result on file for CCOC(=O)C1=C(C)NC(C)=C(C(=O)OC)C1c1cccc([N+](=O)[O-])c1 (stereo not given) .
*A* TRUE

###

# Test system: AS120
# Test description: qHTS profiling for inhibitors of Plasmodium falciparum proliferation (AID 504749); also: nearly all actives have a fitted effect of over 60% in size; also: potency is read from the fitted curve at half-maximal effect
# Conditions: P. falciparum in erythrocytes, SYBR Green DNA, 72 h; series mostly up to 28.7 µM
# Procedure: NIH National Institute of Allergy and Infectious Diseases [NIAID] NIH Chemical Genomics Center [NCGC] […] Because mature erythrocytes lack DNA, only Plasmodium-derived DNA is detected. NCGC Assay Protocol Summary: The SYBR Green viability assay was adapted from a method described previously (Plouffe et al., 2008). […] The following morning, fluorescence intensity at 485(14) nm excitation and 535(25) nm emission wavelengths was measured on an EnVision (Perkin Elmer) plate reader. […]
Results filed as inconclusive are left out. Calls of active or inactive are those of the source. Calls follow the shape of the dose curve; as a rule, active = well fitted inhibition curve with a large enough effect; inconclusive = small, poorly fitted or top-dose-only effect; inactive = flat fitted curve, though single readings scatter.
Recorded endpoint: Potency

>  <Compound>
NCCCNCCSP(=O)(O)O

>  <Test system>
AS120

>  <Recorded endpoint>
Potency

>  <Test result>
inactive

$$$$
>  <Compound>
CNC1(C)C2CCC(C2)C1(C)C (centres undefined)

>  <Test system>
AS120

>  <Recorded endpoint>
Potency

>  <Test result>
inactive

$$$$
>  <Compound>
C[N+](C)(C)CCCCCCCCCC[N+](C)(C)C

>  <Test system>
AS120

>  <Recorded endpoint>
Potency

>  <Test result>
3.16 µM (active)

$$$$
>  <Compound>
CCn1cc(C(=O)O)c(=O)c2cc3c(cc21)OCO3

>  <Test system>
AS120

>  <Recorded endpoint>
Potency

>  <Test result>
inactive

$$$$
>  <Compound>
NC(=O)N1c2ccccc2C=Cc2ccccc21

>  <Test system>
AS120

>  <Recorded endpoint>
Potency

>  <Test result>
inactive

$$$$

I would be grateful if you could provide Potency for each of the following entries.
1. O=C1CC2(CCCC2)CC(=O)N1CCCCN1CCN(c2ncccn2)CC1
2. NC(N)=N/N=C/c1c(Cl)cccc1Cl
3. CCN(Cc1ccncc1)C(=O)C(CO)c1ccccc1 (centres undefined)
4. Nc1ncn([C@@H]2O[C@H](CO)[C@@H](O)[C@H]2O)c(=O)n1
5. Cc1cc(C)c(/C=C2\C(=O)Nc3ccccc32)[nH]1
6. NC(Cc1ccc(Cl)cc1)C(=O)O (centres undefined)
7. NC(=O)c1ncn([C@@H]2O[C@H](CO)[C@@H](O)[C@H]2O)c1O
8. CCCCOCCOCCOCc1cc2c(cc1CCC)OCO2

*A*
inactive
inactive
inactive
inactive
inactive
inactive
inactive
inactive

Answer for every listed entry: what is its Potency? The entries follow.
1. Fc1ccc(C(c2ccc(F)cc2)N2CCN(C/C=C/c3ccccc3)CC2)cc1
2. Cc1nc2c([nH]1)c(=O)n(C)c(=O)n2Cc1ccco1
3. COc1ccc([C@@H]2Sc3ccccc3N(CCN(C)C)C(=O)[C@@H]2OC(C)=O)cc1
4. COCCOC(=O)C1=C(C)NC(C)=C(C(=O)OC(C)C)C1c1cccc([N+](=O)[O-])c1 (centres undefined)

*A*
1. 10 µM (active)
2. inactive
3. inactive
4. 7.94 µM (active)

Record Potency for all entries; do not skip any.
1. CN=C(NC#N)NCCSCc1nc[nH]c1C
2. O=c1[nH]c(=O)n([C@H]2C[C@H](O)[C@@H](CO)O2)cc1Br
3. O=C(O)CN(CCN(CC(=O)O)CC(=O)O)CCN(CC(=O)O)CC(=O)O
4. C[C@H](CS)C(=O)N1CCC[C@H]1C(=O)O
5. COc1cc2c(cc1OC)-c1cc(=Nc3c(C)cc(C)cc3C)n(C)c(=O)n1CC2

*A*
["inactive", "inactive", "inactive", "inactive", "3.55 µM (active)"]

Look up Potency for the entries below, preserving their order.
1. CC1=C(C)C(=O)C(CCCCC#CCCCC#CCO)=C(C)C1=O
2. NS(=O)(=O)c1cc2c(cc1Cl)NC(C1CC3C=CC1C3)NS2(=O)=O (centres undefined)

*A*
6.31 µM (active)
inactive

###

# Test system: TAB109
# Test description: qHTS profiling for inhibitors of Plasmodium falciparum proliferation (AID 504749); also: nearly all actives have a fitted effect of over 60% in size; also: potency is read from the fitted curve at half-maximal effect
# Conditions: P. falciparum in erythrocytes, SYBR Green DNA, 72 h; series mostly up to 28.7 µM
Records with an inconclusive call do not appear. Calls of active or inactive are those of the source. Calls follow the shape of the dose curve; as a rule, active = well fitted inhibition curve with a large enough effect; inconclusive = small, poorly fitted or top-dose-only effect; inactive = flat fitted curve, though single readings scatter.
Recorded endpoint: Potency

Known Potency results, listed for orientation:
>  <Molecule>
O=C(O)CN(CCN(CC(=O)O)CC(=O)O)CCN(CC(=O)O)CC(=O)O

>  <Test result>
inactive

$$$$
>  <Molecule>
CCCCNc1c(C(=O)OCC)c(C)nc2c1cnn2CC

>  <Test result>
inactive

$$$$
>  <Molecule>
CCO/C([O-])=N/c1c[n+](N2CCOCC2)no1

>  <Test result>
inactive

$$$$
>  <Molecule>
CCOC(=O)C1=C(C)NC(C)=C(C(=O)OC)C1c1cccc(Cl)c1Cl (stereo unspecified)

>  <Test result>
inactive

$$$$
>  <Molecule>
CN=C(NC#N)NCCSCc1nc[nH]c1C

>  <Test result>
inactive

$$$$
>  <Molecule>
Cc1ccc(Cl)c(Nc2ccccc2C(=O)O)c1Cl

>  <Test result>
inactive

$$$$
>  <Molecule>
C[n+]1cc2c3c(ccc2c2ccc4cc5c(cc4c21)OCO5)OCO3

>  <Test result>
inactive

$$$$
>  <Molecule>
COc1cc(C(=O)OCCCN2CCCN(CCCOC(=O)c3cc(OC)c(OC)c(OC)c3)CC2)cc(OC)c1OC

>  <Test result>
11.2 µM (active)

$$$$
>  <Molecule>
O=C(CCCN1CCC(O)(c2cccc(C(F)(F)F)c2)CC1)c1ccc(F)cc1

>  <Test result>
8.91 µM (active)

$$$$
>  <Molecule>
CSc1ccc(C(=O)c2[nH]c(=O)[nH]c2C)cc1

>  <Test result>
inactive

$$$$

Field: next molecule
*Q* Query (molecule): `CCCOc1ccccc1-c1nc2n[nH]nc2c(=O)[nH]1` ; field requested: Potency
*A* inactive

###

# Test description: qHTS Validation Assay to Find Inhibitors of Chronic Active B-Cell Receptor Signaling (AID 485345); also: potency is read from the fitted curve at half-maximal effect
# Conditions: ABC-DLBCL cells, chronic BCR signaling reporter, CBG luciferase; series mostly up to 46.1 µM
Inconclusive results are not listed. Activity calls are given as the source filed them. The call rests on the fitted dose curve; in most records, active means well fitted curve in the direction sought with a large enough effect in the main read-out, with a control signal flat (not every such curve was filed as active); inconclusive means small, poorly fitted or top-dose-only effect, or effect the other way, or a change in a side signal; inactive means no such curve, though single readings can be large or run the other way.
Recorded endpoint: Potency

Recorded results for 4 compounds are shown here.
>  <Compound>
CC1=C(C)C(=O)C(CCCCC#CCCCC#CCO)=C(C)C1=O

>  <Potency>
16.4 µM (active)

$$$$
>  <Compound>
CC(C)[N+](C)(CCOC(=O)C1c2ccccc2Oc2ccccc21)C(C)C

>  <Potency>
inactive

$$$$
>  <Compound>
O=C(O)CN(CCN(CC(=O)O)CC(=O)O)CCN(CC(=O)O)CC(=O)O

>  <Potency>
inactive

$$$$
>  <Compound>
CC[N+](C)(C)c1cccc(O)c1

>  <Potency>
inactive

$$$$

Each compound below has a reported value. Please supply its Potency.
1. c1ccc2c(c1)CCCC2C1=NCCN1 (configuration not stated)
2. CN1CCN(CC(=O)N2c3ccccc3C(=O)Nc3cccnc32)CC1

*A*
1: inactive; 2: inactive

// each compound listed below needs its Potency
1. CSc1ccc(C(=O)c2[nH]c(=O)[nH]c2C)cc1
2. CN1C(=O)CC[C@H]1c1cccnc1
3. CCN(CC)CC(=O)Nc1c(C)cccc1C
4. COCCc1ccc(OCC(O)CNC(C)C)cc1 (configuration not stated)
5. CCOC(=O)C1=C(C)NC(C)=C(C(=O)OC)C1c1cccc([N+](=O)[O-])c1 (configuration not stated)
6. CC(C)(Oc1ccc(CCNC(=O)c2ccc(Cl)cc2)cc1)C(=O)O

*A*
1: inactive; 2: inactive; 3: inactive; 4: inactive; 5: 9.2 µM (active); 6: inactive
